A compilation of published pIC50 results with Galectin-3 (Homo sapiens).
Quick note: pIC50 means taking -log10 of the concentration in moles per liter.

Some entries whose results are on file:
{"columns": ["compound", "assay.target", "pIC50"],
 "data": [
  ["CO[C@@H]1[C@@H](n2cc(-c3ccc(C)c(F)c3F)nn2)[C@@H](O)[C@@H](CO)O[C@@H]1Cc1cc(C(C)(C)CNC(=O)OC(C)(C)C)no1", "Galectin-3 (Homo sapiens)", 7.24],
  ["CNC(=O)[C@@H](OCc1ccc(C(F)(F)F)cc1)[C@@H]1OC(CO)[C@H](O)C(n2cc(-c3cc(F)c(F)c(F)c3)nn2)C1O (stereo partly drawn)", "Galectin-3 (Homo sapiens)", 6.46],
  ["CO[C@@H]1[C@@H](n2cc(-c3cc(F)cc(Cl)c3)nn2)[C@@H](O)[C@@H](CO)O[C@@H]1Cc1cc(C2CCOCC2)on1", "Galectin-3 (Homo sapiens)", 6.35],
  ["CO[C@@H]1[C@@H](n2cc(-c3ccc(F)c(F)c3F)nn2)[C@@H](O)[C@@H](CO)O[C@@H]1CC1=NOC2(CCCCC2)C1", "Galectin-3 (Homo sapiens)", 6.85],
  ["CO[C@@H]1[C@@H](n2cc(-c3cc(F)c(F)c(F)c3)nn2)[C@@H](O)[C@@H](CO)O[C@@H]1Cc1cc(C2CCC(NC(=O)[C@@H](NC(=O)OC(C)(C)C)C(C)C)CC2)no1 (stereo partly drawn)", "Galectin-3 (Homo sapiens)", 7.77]
]}

Report pIC50 for `CO[C@@H]1[C@@H](n2cc(-c3cc(F)c(F)c(F)c3)nn2)[C@@H](O)[C@@H](CO)O[C@@H]1Cc1cc(C(C)(C)NC(=O)OC(C)(C)C)no1` please.
6.47

Report pIC50 for CCNC(=O)[C@@H](OCc1ccc(Br)cc1)[C@@H]1OC(CO)[C@H](O)C(n2cc(-c3cc(F)c(F)c(F)c3)nn2)C1OC (stereo partly drawn) please.
6.57

Report pIC50 for `Cc1ccc(-c2cn([C@H]3[C@@H](O)[C@@H](CO)O[C@H](Cc4cc(C(C)(C)C)no4)[C@@H]3OCc3nccn3C)nn2)c(F)c1F` please.
7.11

Report pIC50 for `CCOC(C)(C)c1cc(C[C@H]2O[C@H](CO)[C@H](O)[C@H](n3cc(-c4cc(F)c(F)c(F)c4)nn3)[C@H]2OC)on1` please.
6.16

Report pIC50 for `CC(C)(C)c1cc(C[C@H]2O[C@H](CO)[C@H](O)[C@H](n3cc(-c4cc(F)c(F)c(F)c4)nn3)[C@H]2O)no1` please.
6.82

Report pIC50 for `CO[C@@H]1[C@@H](n2cc(-c3cc(F)c(F)c(F)c3)nn2)[C@@H](O)[C@@H](CO)O[C@@H]1Cc1cc(C23CCC(N)(CC2)CC3)on1` please.
6.85

Report pIC50 for CO[C@@H]1[C@@H](n2cc(-c3cc(F)c(F)c(F)c3)nn2)[C@@H](O)[C@@H](CO)O[C@@H]1Cc1cc(C2CCN(S(=O)(=NC(C)C)C(C)C)CC2)on1 (stereo partly drawn) please.
6.96
